Here the recorded pKd is given for each entry.
target: recombinant hGPC3-His (human) (UniProt P51654); assay: Biacore SPR, antibody captured, hGPC3-His analyte, 1:1 model
Convention used: pKd is expressed as -log10 of the molar concentration.

Before answering, review these 5 worked examples.
P1-E6 IgG variant of ARD-103 (antibody, V domains shown) VH: QVQLVESGAEVKKPGASVKVSCKASGYTFTDYEMHWVRQAPGQGLEWMGALDPKTGDTALSQKFKGRVTLTADKSTSTAYMELSSLTSEDTAVYYCTRFYSYTYWGQGTLVTVSS VL: DVVMTQSPLSLPVTPGEPASISCRSSSSLVHSNGNTYLHWYLQKPGQSPQLLIYKVSNRFSGVPDRFSGSGSGTDFTLKISRVEAEDVGVYYCLQNGIVPPTFGQGTKLEIKR :: 8.40
P1-G5 IgG variant of ARD-103 (antibody, V domains shown) VH: QVQLVESGAEVKKPGASVKVSCKASGYTFTDYEMHWVRQAPGQGLEWMGAIDPKTGDTAYSQKFKGRVTLTADKSTSTAYMELSSLTSEDTAVYYCTRFYSYTYWGQGTLVTVSS VL: DVVMTQSPLSLPVTPGEPASISCRSSQSLVHSNGNTYLQWYLQKPGQSPQLLIYKVSNRFSGVPDRFSGSGSGTDFTLKISRVEAEDVGVYYCSQVTHVPPTFGQGTKLEIKR :: 8.38
P1-B9 IgG variant of ARD-103 (antibody, V domains shown) VH: QVQLVESGAEVKKPGASVKVSCKASGYTFTDYEMHWVRQAPGQGLEWMGALDPKTGDTALSQKFKGRVTLTADKSTSTAYMELSSLTSEDTAVYYCTRFYSYTYWGQGTLVTVSS VL: DVVMTQSPLSLPVTPGEPASISCRSSQSLVHSNGNTYLQWYLQKPGQSPQLLIYKVSNRFSGVPDRFSGSGSGTDFTLKISRVEAEDVGVYYCGQVTHVPPTFGQGTKLEIKR :: 8.48
P1-D6 IgG variant of ARD-103 (antibody, V domains shown) VH: QVQLVQSGAEVKNPGASVKVSCKASGYTFTDYEMHWVRQAPGQGLEWMGALDPFTGDTAYSQKFKGRVTLTADKSTSTAYMELSSLTSEDTAVYYCTRFYSYTYWGQGTLVTVSS VL: DVVMTQSPLSLPVTPGEPASISCRSSQSLVHSNGNTYLHWYLQKPGQSPQLLIYKVSNRFSGVPDRFSGSGSGTDFTLKISRVEAEDVGVYYCLQNGYVPPTFGQGTKLEIKR :: 8.44
P6-D11 IgG variant of ARD-103 (antibody, V domains shown) VH: QVQLVQSGAEVKKPGASVKVSCKASGYTFTDYEMHWVRQAPGQGLEWMGALDPKTGDEAYSQKFKGRVTLTADKSTSTAYMELSSLTSEDTAVYYCTRFYSYTYWGQGTLVTVSS VL: DVVMTQSPLSLPVTPGEPASISCRSEQSLVHSNGNTYLHWYLQKPGQSPQLLIYKVSNRFSGVPDRFSGSGSGTDFTLKISRVEAEDVGVYYCVQNGLFPPTFGQGTKLEIKR :: 8.52

Q: Output pKd of ARD-103 antibody (IgG) (antibody, V domains shown) VH: QVQLVESGAEVKKPGASVKVSCKASGYTFTDYEMHWVRQAPGQGLEWMGALDPKTGDTAYSQKFKGRVTLTADKSTSTAYMELSSLTSEDTAVYYCTRFYSYTYWGQGTLVTVSS VL: DVVMTQSPLSLPVTPGEPASISCRSSQSLVHSNGNTYLHWYLQKPGQSPQLLIYKVSNRFSGVPDRFSGSGSGTDFTLKISRVEAEDVGVYYCSQNTHVPPTFGQGTKLEIKR
Result: 8.41

Q: Specify reported pKd for the binder shown: P3-F7 IgG variant of ARD-103 (antibody, V domains shown) VH: QVQLVESGAEVKKPGASVKVSCKASGYTFTDYEMHWVRQAPGQGLEWMGALDPKTGDTAYSQKFKGRVTLTADKSTSTAYMELSSLTSEDTAVYYCTRFYSYTYWGQGTLVTVSS VL: DVVMTQSPLSLPVTPGEPASISCRSSQSLVHSNGNTYLQWYLQKPGQSPQLLIYKVSNRFSGVPDRFSGSGSGTDFTLKISRVEAEDVGVYYCVQVTHVPPTFGQGTKLEIKR
Result: 8.07
